Target: purified Hhat (Homo sapiens, UniProt Q5VTY9)
Sequence (Q5VTY9 whole entry): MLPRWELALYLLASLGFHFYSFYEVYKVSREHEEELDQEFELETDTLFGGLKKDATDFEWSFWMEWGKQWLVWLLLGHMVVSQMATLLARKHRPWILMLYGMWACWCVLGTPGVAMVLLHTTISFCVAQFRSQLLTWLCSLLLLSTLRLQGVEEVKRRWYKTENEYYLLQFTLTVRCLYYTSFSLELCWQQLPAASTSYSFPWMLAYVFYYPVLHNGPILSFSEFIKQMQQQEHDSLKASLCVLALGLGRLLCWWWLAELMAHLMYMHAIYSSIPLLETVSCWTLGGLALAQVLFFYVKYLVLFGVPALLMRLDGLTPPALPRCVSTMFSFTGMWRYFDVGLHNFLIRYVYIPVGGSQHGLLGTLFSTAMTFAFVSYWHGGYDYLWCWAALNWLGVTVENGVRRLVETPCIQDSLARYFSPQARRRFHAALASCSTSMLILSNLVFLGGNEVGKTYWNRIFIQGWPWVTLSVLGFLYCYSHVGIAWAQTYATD
measured-attribute: IC50

Summary line: O=C(c1ccc2nccn2c1)N1CCc2sc(Cl)cc2[C@H]1c1ccc(F)cc1 [TDI-003410] , purified Hhat (Homo sapiens, UniProt Q5VTY9), reported IC50 = 1500 nM

====

Molecular target: membrane-bound Hhat (Homo sapiens, UniProt Q5VTY9)
Construct: HA; expressed in transfected cells; host or cells: 293FT cells (P100 microsomal membranes)
Sequence (Q5VTY9 whole entry): as above
Experiment: Shh palmitoylation by membrane-bound Hhat (P100 membranes, SPA)
Format: biochemical
Details: 1 hr at 20° C., triplicate
measured-attribute: IC50
Numeric answer plus unit only.

For record O=C(c1ccc2nccn2c1)N1CCc2sc(Cl)cc2[C@H]1c1ccc(F)cc1 [TDI-003410] the listed IC50 is 1780 nM
